# Test system: Plasmodium falciparum
# ASSAY REMARKS: Inhibition of plasmodium falciparum apicoplast DNA polymerase exonuclease activity using blunt-ended double stranded oligonucleotide with 2-aminopurine at position 1 on 3' end as substrate assessed as exonuclease specific activity at 100 uM (reference value: 2.2 +/- 0.09%)
Returns: string. Value is Yes if measured Activity is below 2 U, and No if it is greater than or equal to it.

Worked cases, answers included:
- COMPOUND: "CC(C)(C)c1ccc(C(=O)Nc2c3c(nn2-c2cccc(Cl)c2)C[S+]([O-])C3)cc1 (stereo not drawn)"
  ASSIGNED LABEL: "Yes"
- COMPOUND: "O=C(Nc1c2c(nn1-c1cccc(Cl)c1)COC2)C(F)(F)F"
  ASSIGNED LABEL: "No"
- COMPOUND: "CC(C)(C)C(=O)Nc1c2c(nn1-c1cccc(Cl)c1)COC2"
  ASSIGNED LABEL: "No"
- COMPOUND: "CC(C)(C)c1ccc(C(=O)Nc2c3c(nn2-c2cccc(Cl)c2)COC3)cc1"
  ASSIGNED LABEL: "Yes"
- COMPOUND: "CC(C)(C)c1ccc(NC(=O)Nc2c3c(nn2-c2cccc(Cl)c2)CSC3)cc1"
  ASSIGNED LABEL: "No"

Is Activity of CC(C)(C)c1ccc(C(=O)Nc2c3c(nn2-c2cccc(C(F)(F)F)c2)CSC3)cc1 strictly below 2 U?
No

Quick check: Activity of CC(C)(C)c1ccc(S(=O)(=O)Nc2c3c(nn2-c2cccc(Cl)c2)CSC3)cc1 under 2 U?
Yes

For this compound, is Activity lower than 2 U? CC(C)(C)c1ccc(NC(=O)Nc2c3c(nn2-c2cccc(Cl)c2)COC3)cc1
No

Is 2 U strictly greater than the compound's reported Activity? compound: CC(C)(C)c1ccc(C(=O)Nc2c3c(nn2-c2cccc(Cl)c2)CSC3)cc1
Yes

Lab note: Activity threshold 2 U. Does this compound come in strictly under it? Cc1cccc(-n2nc3c(c2NS(=O)(=O)c2ccc(C(C)(C)C)cc2)CSC3)c1
No

Does the reported Activity of Cc1ccc(-n2nc3c(c2NS(=O)(=O)c2ccc(C(C)(C)C)cc2)CSC3)cc1 stay below 2 U?
No

Activity strictly < 2 U for this compound? CC(C)(C)c1ccc(S(=O)(=O)Nc2c3c(nn2-c2ccc(C(F)(F)F)cc2)CSC3)cc1
Yes
